Biological target: human adenosine A2b receptor (Homo sapiens, UniProt P29275)
Sequence (P29275 1-332): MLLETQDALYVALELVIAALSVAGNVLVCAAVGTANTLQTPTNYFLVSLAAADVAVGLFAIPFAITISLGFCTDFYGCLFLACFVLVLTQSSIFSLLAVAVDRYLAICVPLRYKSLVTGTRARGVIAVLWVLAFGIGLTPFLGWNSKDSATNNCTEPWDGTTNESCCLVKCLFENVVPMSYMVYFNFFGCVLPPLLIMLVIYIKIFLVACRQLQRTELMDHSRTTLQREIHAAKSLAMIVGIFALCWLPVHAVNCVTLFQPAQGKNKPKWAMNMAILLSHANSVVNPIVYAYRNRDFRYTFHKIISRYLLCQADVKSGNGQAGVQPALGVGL
Test: Cellular in vitro reporter gene test for A2b receptor activity (antagonism of NECA)
Settings: recombinant CHO-K1 cells, CRE-luciferase reporter, co-incubation with EC50 concentration of NECA, 3 hours
Reported endpoint: pIC50
Please keep in mind that pIC50 is minus log10 of the molar concentration; only the number is needed.

The following compounds have reported results that may help.
Q: If you can, please state the reported pIC50 value of Cc1c(Cn2nc[nH]c2=O)sc2c1c(=O)n(C1CC1C)c(=O)n2CCOC(F)(F)F (racemic) [Example 276] .
Result: 8.70

Q: If you can, please state the reported pIC50 value of Cc1c(CN2CCNC2=O)sc2c1c(=O)n(C1CC1C)c(=O)n2CCC(F)(F)C(F)F (racemic) [Example 245] .
Result: 8.17

Q: If you can, please state the reported pIC50 value of Cc1c(CN2CCNC2=O)sc2c1c(=O)n(C1CC1C)c(=O)n2CCCC(F)(F)F (racemic) [Example 242] .
Result: 8.68

Q: If you can, please state the reported pIC50 value of COCCn1c(=O)n(C2CCC2)c(=O)c2c(C)c(CN3CCNC3=NC(=O)OC)sc21 .
Result: 8.89

Q: If you can, please state the reported pIC50 value of COCCn1c(=O)n(C2CC(C)(C)C2)c(=O)c2c(C)c(CN3CCNC3=O)sc21 .
Result: 7.85

Q: If you can, please state the reported pIC50 value of Cc1c(CN2CCNC2=NC#N)sc2c1c(=O)n(C1CC1)c(=O)n2CCC(F)(F)F .
Result: 8.48

Q: If you can, please state the reported pIC50 value of CCOCCn1c(=O)n(C2(C)CC2)c(=O)c2c(C)c(Cn3nc[nH]c3=O)sc21 .
Result: 6.25

Q: If you can, please state the reported pIC50 value of COCCn1c(=O)n([C@H]2C[C@@H]2C)c(=O)c2c(C)c(Cn3nc[nH]c3=O)sc21 .
Result: 7.37

Others:
Q: If you can, please state the reported pIC50 value of Cc1c(CN2CCNC2=O)sc2c1c(=O)n(C1CC1)c(=O)n2CC1CCC1 .
Result: 8.39

Q: If you can, please state the reported pIC50 value of Cc1c(CN2CCNC2=O)sc2c1c(=O)n(C1CC1C)c(=O)n2CCCF (racemic) [Example 90] .
Result: 8.28

Q: If you can, please state the reported pIC50 value of Cc1c(Cn2nc[nH]c2=O)sc2c1c(=O)n(C1CC1)c(=O)n2CC1CCC1(F)F (single isomer, unassigned; enantiomer 1) [Example 202] .
Result: 6.85

Q: If you can, please state the reported pIC50 value of CO[C@H]1C[C@@H](n2c(=O)c3c(C)c(CN4CCNC(=O)C4=O)sc3n(CCC(F)(F)F)c2=O)C1 .
Result: 7.20

###

Target: human adenosine A2b receptor (Homo sapiens, UniProt P29275)
Sequence (P29275 1-332): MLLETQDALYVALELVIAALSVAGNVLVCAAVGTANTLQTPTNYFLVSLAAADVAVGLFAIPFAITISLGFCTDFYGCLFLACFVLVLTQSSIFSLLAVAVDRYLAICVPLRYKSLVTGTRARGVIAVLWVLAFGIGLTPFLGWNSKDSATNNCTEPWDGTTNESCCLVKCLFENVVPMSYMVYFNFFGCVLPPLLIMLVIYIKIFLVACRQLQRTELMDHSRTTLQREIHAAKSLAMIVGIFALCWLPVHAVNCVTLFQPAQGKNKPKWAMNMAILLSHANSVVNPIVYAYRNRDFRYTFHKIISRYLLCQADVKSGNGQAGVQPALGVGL
Test: Cellular in vitro reporter gene test for A2b receptor activity (antagonism of NECA)
Conditions: recombinant CHO-K1 cells, CRE-luciferase reporter, co-incubation with EC50 concentration of NECA, 3 hours
Reported endpoint: log10 of IC50 (log10 of the value in nM)
The figures below represent log10 of IC50, where IC50 is stated in nM.

The following compounds have reported results that may help.
Q: If you can, please state the reported log10 of IC50 value of COCCn1c(=O)n(C2CC2(C)C)c(=O)c2c(C)c(CN3CCNC3=O)sc21 (single isomer, unassigned) [Example 104] .
Result: 1.54

Q: If you can, please state the reported log10 of IC50 value of Cc1c(CN2CCNC2=O)sc2c1c(=O)n([C@H]1C[C@@H]1C)c(=O)n2CC1CCC(F)(F)C1 (single isomer, unassigned) [Example 256] .
Result: 0.74

Others:
Q: If you can, please state the reported log10 of IC50 value of CCCn1c(=O)n(C2CC2C)c(=O)c2c(C)c(CN3CCNC3=O)sc21 (racemic) [Example 227] .
Result: 0.46

Q: If you can, please state the reported log10 of IC50 value of Cc1c(CN2CCNC2=O)sc2c1c(=O)n(C1CC1(C)C)c(=O)n2CCCF (single isomer, unassigned) [Example 98] .
Result: 2.15

Q: If you can, please state the reported log10 of IC50 value of Cc1c(Cn2nc[nH]c2=O)sc2c1c(=O)n(C1CCCC1)c(=O)n2CCC(F)(F)F [Example 188] .
Result: 2.00

Q: If you can, please state the reported log10 of IC50 value of COCCn1c(=O)n(C2CC3(CCC3)C2)c(=O)c2c(C)c(CN3CCNC3=NC(=O)OC)sc21 [Example 181] .
Result: 0.83

Q: If you can, please state the reported log10 of IC50 value of COC(=O)N=C1NCCN1Cc1sc2c(c1C)c(=O)n(C1CC(F)(F)C1)c(=O)n2CCC(F)(F)F [Example 122] .
Result: 0.62

###

Biological target: human adenosine A1 receptor (Homo sapiens, UniProt P30542)
Sequence (P30542 1-326): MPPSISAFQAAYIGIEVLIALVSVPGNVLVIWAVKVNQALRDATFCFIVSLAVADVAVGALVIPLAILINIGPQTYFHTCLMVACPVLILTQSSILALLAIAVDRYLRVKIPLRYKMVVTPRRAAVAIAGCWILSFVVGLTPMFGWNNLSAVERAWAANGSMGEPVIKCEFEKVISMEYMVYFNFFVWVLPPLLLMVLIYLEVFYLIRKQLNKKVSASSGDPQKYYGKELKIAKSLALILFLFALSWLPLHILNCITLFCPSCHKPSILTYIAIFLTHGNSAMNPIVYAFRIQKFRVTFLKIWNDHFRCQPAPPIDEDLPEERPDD
Here the recorded Ki is given for each entry.
Numeric only. Scale: µM

The following compounds have reported results that may help.
Q: If you can, please state the reported Ki value of COCCn1c(=O)n([C@H]2C[C@@H]2C)c(=O)c2c(C)c(CN3CCNC3=O)sc21 .
Result: 3.4

Q: If you can, please state the reported Ki value of COCCn1c(=O)n(C2CC2C)c(=O)c2c(C)c(CN3CCNC3=O)sc21 (single isomer, unassigned) .
Result: 3.4

Q: If you can, please state the reported Ki value of Cc1c(Cn2nc[nH]c2=O)sc2c1c(=O)n(C1CC1)c(=O)n2CCC(F)(F)F .
Result: 8

Now, please, on to the next compound.
Q: If you can, please state the reported Ki value of Cc1c(Cn2nc[nH]c2=O)sc2c1c(=O)n(C1CC1)c(=O)n2CCOC(F)(F)F .
Result: 2.6

###

Here the recorded IC50 is given for each entry.
Biological target: human adenosine A2b receptor (Homo sapiens)
Assay: Cellular in vitro reporter gene test for A2b receptor activity (antagonism of NECA)
Settings: recombinant CHO-K1 cells, CRE-luciferase reporter, co-incubation with EC50 concentration of NECA, 3 hours
Numeric only. Scale: nM

Q: If you can, please state the reported IC50 value of Cc1c(CN2CCNC2=O)sc2c1c(=O)n(C1CC1C)c(=O)n2C (single isomer, unassigned) [Example 223] .
Result: 19

Q: If you can, please state the reported IC50 value of Cc1c(CN2CCNC2=O)sc2c1c(=O)n(C1CC1C)c(=O)n2CCC(F)(F)C(F)F (single isomer, unassigned) [Example 246] .
Result: 22

Q: If you can, please state the reported IC50 value of Cc1c(Cn2nc[nH]c2=O)sc2c1c(=O)n(C1(C)CC1)c(=O)n2C[C@@H]1CCCO1 [Example 84] .
Result: 460

Q: If you can, please state the reported IC50 value of Cc1c(CN2CCNC2=O)sc2c1c(=O)n(C1CC1C)c(=O)n2CC1CCOC1 (single isomer, unassigned) [Example 290] .
Result: 270

Q: If you can, please state the reported IC50 value of COCCn1c(=O)n([C@H]2C[C@@H](OC)C2)c(=O)c2c(C)c(Cn3nc[nH]c3=O)sc21 [Example 163] .
Result: 1200

Q: If you can, please state the reported IC50 value of Cc1c(Cn2cc[nH]c2=O)sc2c1c(=O)n(C1(C)CC1)c(=O)n2CC1CC(F)(F)C1 [Example 216] .
Result: 3.2

Q: If you can, please state the reported IC50 value of Cc1c(CN2CCNC2=O)sc2c1c(=O)n([C@H]1C[C@@H]1C)c(=O)n2CC1CCO1 (stereo partly drawn) [Example 282] .
Result: 4.1

Q: If you can, please state the reported IC50 value of Cc1c(CN2CCNC2=O)sc2c1c(=O)n(C1CC1C)c(=O)n2CCSC(F)(F)F (single isomer, unassigned) [Example 281] .
Result: 2.1

Q: If you can, please state the reported IC50 value of Cc1c(Cn2nc[nH]c2=O)sc2c1c(=O)n(C1CCC1)c(=O)n2CCC(F)(F)F [Example 114] .
Result: 1.9

Q: If you can, please state the reported IC50 value of Cc1c(CN2CCNC(=O)C2=O)sc2c1c(=O)n(C1CCCC1)c(=O)n2CCC(F)(F)F [Example 187] .
Result: 19

Others:
Q: If you can, please state the reported IC50 value of Cc1c(Cn2nc[nH]c2=O)sc2c1c(=O)n(C1CC1)c(=O)n2CC1CC1(F)F (single isomer, unassigned; enantiomer 2) [Example 22] .
Result: 280

Q: If you can, please state the reported IC50 value of COCCn1c(=O)n(C2CC(C)(C)C2)c(=O)c2c(C)c(Cn3nc[nH]c3=O)sc21 [Example 173] .
Result: 83

Q: If you can, please state the reported IC50 value of [2H]C([2H])(c1sc2c(c1C)c(=O)n(C1CC1)c(=O)n2CCC(F)(F)F)N1CCNC1=O [Example 16] .
Result: 3

Q: If you can, please state the reported IC50 value of COC(=O)N=C1NCCN1Cc1sc2c(c1C)c(=O)n([C@H]1C[C@H](OC)C1)c(=O)n2CCC(F)(F)F [Example 146] .
Result: 6.2

Q: If you can, please state the reported IC50 value of Cc1c(Cn2nc[nH]c2=O)sc2c1c(=O)n(C1CC1)c(=O)n2C [Example 2] .
Result: 81
